- Method Description: Inhibition of amyloid beta (25 to 35) fibril formation at 10 uM incubated up to 6 hrs by UV-Vis spectrophotometric analysis
Activity calls are given as the source filed them. The calls are words filed in the database; no cut-off is given here.

| Chem Smiles | inhibition |
| --- | --- |
| CN(CCCCCCCOc1ccc(-c2oc3ccccc3c2C(=O)c2cccc3ccccc23)cc1)Cc1ccccc1 | 48% |
| CCN(CC)CCOc1ccc(C(=O)c2c(-c3ccc(OCCCCCCCN(C)Cc4ccccc4)cc3)oc3ccccc23)cc1 | Active |
| CN(CCCCCCCOc1cccc(-c2oc3ccccc3c2C(=O)c2ccccc2)c1)Cc1ccccc1 | 35% |
| CN(CCCCCCCOc1ccc(-c2oc3ccccc3c2C(=O)c2ccc(OCCN3CCOCC3)cc2)cc1)Cc1ccccc1 | Active |

----------
- Assay Target: Acetylcholinesterase (Homo sapiens)
- Sequence (P22303 whole entry): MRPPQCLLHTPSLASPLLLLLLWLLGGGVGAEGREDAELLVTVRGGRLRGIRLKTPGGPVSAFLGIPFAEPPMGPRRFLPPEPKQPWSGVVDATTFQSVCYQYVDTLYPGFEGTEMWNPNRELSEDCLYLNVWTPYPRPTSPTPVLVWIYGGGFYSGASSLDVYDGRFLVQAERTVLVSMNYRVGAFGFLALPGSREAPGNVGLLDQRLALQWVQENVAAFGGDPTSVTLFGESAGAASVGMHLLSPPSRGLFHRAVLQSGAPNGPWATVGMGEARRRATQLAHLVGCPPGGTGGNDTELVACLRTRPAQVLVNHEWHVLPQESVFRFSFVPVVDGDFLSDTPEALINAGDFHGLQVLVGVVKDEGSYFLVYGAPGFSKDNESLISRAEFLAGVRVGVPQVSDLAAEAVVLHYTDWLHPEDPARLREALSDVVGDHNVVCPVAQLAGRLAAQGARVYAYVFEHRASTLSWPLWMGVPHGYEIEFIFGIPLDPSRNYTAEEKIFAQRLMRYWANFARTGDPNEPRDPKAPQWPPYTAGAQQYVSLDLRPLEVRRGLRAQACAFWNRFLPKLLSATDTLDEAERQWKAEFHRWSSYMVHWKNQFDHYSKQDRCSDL
- Method Description: Inhibition of human recombinant AChE using acetylthiocholine iodide as substrate preincubated for 20 mins prior to substrate addition by Ellman's method
- Experimental Conditions: read-out: IC50
Measurement Name: pIC50
Answers are plain numbers, as −log10 of the molar value.

| Chem Smiles | Assay Result |
| --- | --- |
| CN(CCCCCOc1ccc(-c2cc3ccccc3o2)cc1)Cc1ccccc1 | 3.67 |
| CCN(CC)Cc1cccc(C(=O)c2c(-c3ccc(OCCCCCCCN(C)Cc4ccccc4)cc3)oc3ccccc23)c1 | 4.28 |
| CN(CCCCCCCOc1cccc(-c2oc3ccccc3c2C(=O)c2ccccc2)c1)Cc1ccccc1 | 6.62 |

For every item in the list below, what is its measured pIC50?
1. CN(CCCCCCCOc1ccc(-c2oc3ccccc3c2C(=O)c2ccc(OCCN3CCOCC3)cc2)cc1)Cc1ccccc1
2. CN(CCCCCCCOc1ccc(-c2oc3ccccc3c2C(=O)c2c3ccccc3cc3ccccc23)cc1)Cc1ccccc1
3. CCN(CC)CCOc1ccc(C(=O)c2c(-c3ccc(OCCCCCCCN(C)Cc4ccccc4)cc3)oc3ccccc23)cc1
4. Cc1cccc(C(=O)c2c(-c3cccc(OCCCCCCCN(C)Cc4ccccc4)c3)oc3ccccc23)c1
5. CNC(=O)Oc1cccc(CN(C)CCCCCCCOc2ccc(-c3oc4ccccc4c3C(=O)c3ccc(C)cc3)cc2)c1

Solution:
1. 4.41
2. 4.17
3. 4.11
4. 3.99
5. 6.47

----------
- Assay Target: Cannabinoid receptor 2 (Homo sapiens)
- Sequence (P34972 whole entry): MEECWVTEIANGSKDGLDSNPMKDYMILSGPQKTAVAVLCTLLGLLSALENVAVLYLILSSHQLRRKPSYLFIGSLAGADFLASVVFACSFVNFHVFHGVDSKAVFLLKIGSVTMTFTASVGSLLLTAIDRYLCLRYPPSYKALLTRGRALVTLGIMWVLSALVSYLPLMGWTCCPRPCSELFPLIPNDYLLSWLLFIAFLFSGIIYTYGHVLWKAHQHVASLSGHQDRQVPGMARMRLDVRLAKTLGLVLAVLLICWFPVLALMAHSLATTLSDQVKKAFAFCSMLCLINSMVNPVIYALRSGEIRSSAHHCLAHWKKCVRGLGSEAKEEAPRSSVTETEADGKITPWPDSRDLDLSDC
- Method Description: Displacement of [3H]CP-55940 from human recombinant CB2 receptor expressed in HEK293 cells at 10 uM after 90 mins
- Type: cell-based
Measurement Name: Activity
Note: a bare number is incomplete; add the unit.

Look over these answered cases.
| Chem Smiles | Measurement Name | Assay Result |
| --- | --- | --- |
| CN(CCCCCCCOc1ccc(-c2oc3ccccc3c2C(=O)c2cccc3ccccc23)cc1)Cc1ccccc1 | Activity | 8.9% |
| CN(CCCCCCCOc1ccc(-c2oc3ccccc3c2C(=O)c2ccc(OCCN3CCOCC3)cc2)cc1)Cc1ccccc1 | Activity | 70.6% |
| CN(CCCCCCCOc1ccc(-c2oc3ccccc3c2C(=O)c2ccccc2)cc1)Cc1ccccc1 | Activity | 47.3% |

Now, please, on to the next compound.
Exercise: Look up Activity for this compound: `CCN(CC)CCOc1cccc(C(=O)c2c(-c3ccc(OCCCCCCCN(C)Cc4ccccc4)cc3)oc3ccccc23)c1`
Solution: 77.9%

----------
Would you kindly list Activity for each of these compounds?
- Assay Target: Cannabinoid receptor 2 (Homo sapiens)
- Method Description: Displacement of [3H]CP-55940 from human recombinant CB2 receptor expressed in HEK293 cells at 10 uM after 90 mins
- Assay type: cell-based
One number for each entry, in %.

| Chem Smiles | Assay Target | Activity [%] |
| --- | --- | --- |
| CN(CCCCCCCOc1ccc(-c2oc3ccccc3c2C(=O)c2ccc3ccccc3c2)cc1)Cc1ccccc1 | Cannabinoid receptor 2 (Homo sapiens) | 6.87 |

List Activity for every entry below, keeping the order given.
1. CN(CCCCCCCOc1ccc(-c2cc3ccccc3o2)cc1)Cc1ccccc1
2. CCN(CC)Cc1ccc(C(=O)c2c(-c3ccc(OCCCCCCCN(C)Cc4ccccc4)cc3)oc3ccccc23)cc1
3. CN(CCCCCCCOc1ccc(-c2oc3ccccc3c2C(=O)c2c3ccccc3cc3ccccc23)cc1)Cc1ccccc1
4. CCN(CC)Cc1cccc(C(=O)c2c(-c3ccc(OCCCCCCCN(C)Cc4ccccc4)cc3)oc3ccccc23)c1
5. CCN(CC)CCOc1ccc(C(=O)c2c(-c3ccc(OCCCCCCCN(C)Cc4ccccc4)cc3)oc3ccccc23)cc1

Solution:
1: 21.8; 2: 65.2; 3: 9.87; 4: 47.3; 5: 92

----------
- Assay Target: Cannabinoid receptor 2 (Homo sapiens)
- Method Description: Displacement of [3H]CP-55940 from human recombinant CB2 receptor expressed in HEK293 cells after 90 mins
- Type: cell-based
Please respond with reported pEC50 for every item in the list.
Answers are plain numbers, as −log10 of the molar value.

Solved entries (count: 2):
| Chem Smiles | pEC50 |
| --- | --- |
| CCN(CC)CCOc1ccc(C(=O)c2c(-c3ccc(OCCCCCCCN(C)Cc4ccccc4)cc3)oc3ccccc23)cc1 | 5.33 |
| CN(CCCCCCCOc1ccc(-c2oc3ccccc3c2C(=O)c2ccc(-c3ccccc3)cc2)cc1)Cc1ccccc1 | 5.15 |

Exercise: For `CCN(CC)Cc1ccc(C(=O)c2c(-c3ccc(OCCCCCCCN(C)Cc4ccccc4)cc3)oc3ccccc23)cc1` , what is its reported pEC50?
Solution: 5.36

----------
I'd be grateful if you could share measured pIC50 for these entries.
- Assay Target: Acetylcholinesterase (Homo sapiens)
- Method Description: Inhibition of human recombinant AChE using acetylthiocholine iodide as substrate preincubated for 20 mins prior to substrate addition by Ellman's method
- Experimental Conditions: read-out: IC50
One number for each entry, as −log10 of the molar value.

As a guide, the following entries are already answered.
| Chem Smiles | pIC50 |
| --- | --- |
| CN(CCCCCCCOc1ccc(-c2oc3ccccc3c2C(=O)c2cccc3ccccc23)cc1)Cc1ccccc1 | 4.00 |
| CCN(CC)Cc1ccc(C(=O)c2c(-c3ccc(OCCCCCCCN(C)Cc4ccccc4)cc3)oc3ccccc23)cc1 | 4.00 |

Alright, here's another compound for you.
Exercise: Would you mind telling me what pIC50 value was observed for `CCN(CC)CCOc1cccc(C(=O)c2c(-c3ccc(OCCCCCCCN(C)Cc4ccccc4)cc3)oc3ccccc23)c1` ?
Solution: 4.43

Numbers sourced from ChEMBL document CHEMBL2157903.
